Just for reference, patent US4382094A is where these values come from.

Test system: ear, irritant solution of 1% croton oil
Experiment: topical anti-inflammatory activity, croton oil rat ear model (Fregnan and Torsello)
Assay type: in vivo, Rats, Charles River Wistar Strain, female
Details: Rattus norvegicus; 2 mg/ear, topical, compound in irritant solution, 6 hours; read-out: Treated Ear % inhibition
parameter: inhibition in vivo at 2 mg/ear (%)
The reply should be a number in %, with the unit left off.

// solved cases for inhibition in vivo at 2 mg/ear follow
CC12CCC(=O)C=C1CCC(=Cc1ccc([N+](=O)[O-])cc1)C2=O (stereo not drawn)
81
CC12CCC(=O)C=C1CCC(=Cc1cccc(O)c1)C2=O (stereo not drawn)
98
CC12CCC(=O)C=C1CCC(=Cc1ccc(Cl)cc1)C2=O (stereo not drawn)
63
CC12CCC(=O)C=C1CCC(=Cc1ccc3c(c1)OCO3)C2=O (stereo not drawn)
100
CC12CCC(=O)C=C1CCC(=Cc1cccc(Cl)c1)C2=O (stereo not drawn)
41

Recorded inhibition in vivo at 2 mg/ear (molecule CC12CCC(=O)C=C1CCC(=Cc1ccco1)C2=O (stereo not drawn) ): 44

Recorded inhibition in vivo at 2 mg/ear (molecule CC12CCC(=O)C=C1CCC(=Cc1ccc(C#N)cc1)C2=O (stereo not drawn) ): 53

Recorded inhibition in vivo at 2 mg/ear (molecule COc1ccc(C=C2CCC3=CC(=O)CCC3(C)C2=O)cc1 (stereo not drawn) ): 95

Recorded inhibition in vivo at 2 mg/ear (molecule CC12CCC(=O)C=C1CCC(=Cc1cccs1)C2=O (stereo not drawn) ): 71
